The reported measurements were obtained from PubChem BioAssay (NCI).

system: NCI-H460 lung; experiment: NCI-60 one-dose screen, 48 h (100 = growth as untreated, 0 = no growth, -100 = all killed); conditions: 10 µM unless noted
About 83,000 compounds went through this panel and 20% of them were active in at least one assay; those are over-represented in the sample as a whole.
Param label: returns y when growth < 40%, returns n otherwise, including exact equality.

Could you please tell me whether growth recorded for Fc1ccc(-c2cc3nc(C(Cl)Cl)nc(-c4ccc(F)cc4)n3n2)cc1 is less than 40%?
y

Could you please tell me whether growth recorded for NC(N)=Nc1ccc(Oc2cccc(Nc3cccc(C(F)(F)F)c3)c2)cn1 is less than 40%?
y

Could you please tell me whether growth recorded for COc1ccc2[nH]cc(/C=N/Nc3nc4ccccc4s3)c2c1 is less than 40%?
y

Could you please tell me whether growth recorded for C#CCOC(=O)[C@@H]1CCCN1CC#C is less than 40%?
n

Could you please tell me whether growth recorded for O=C(Cn1c(-c2ccccc2)nc2cc(Cl)c(Cl)cc21)N=Nc1c(O)[nH]c2ccc(Cl)cc12 is less than 40%?
n

Could you please tell me whether growth recorded for COc1ccc2c(c1)c(CC(=O)[Se]CC#N)c(C)n2C(=O)c1ccc(Cl)cc1 is less than 40%?
y

Could you please tell me whether growth recorded for CCn1c(SCC(=O)Nc2cccc(C(=O)/C=C/c3ccc(Br)cc3)c2)nc2ccccc2c1=O is less than 40%?
n

Could you please tell me whether growth recorded for CNC(=O)c1cc(N2CCc3cc(NC(=O)Nc4ccc(Cl)c(C(F)(F)F)c4)ccc32)ccn1 is less than 40%?
y

Could you please tell me whether growth recorded for O=C(NNc1nc2cc(F)c(F)cc2n2c(CN3CC4CNCC4C3)ccc12)c1ncccn1 (stereo not given) is less than 40%?
y

Could you please tell me whether growth recorded for CS(=O)(=O)c1ncc(-c2ccccc2)cn1 is less than 40%?
n

Could you please tell me whether growth recorded for COc1cc(OC)cc(C(=O)Nc2cccc(C#Cc3cccc4[nH]nc(N)c34)c2)c1 is less than 40%?
y

Could you please tell me whether growth recorded for C=C(C)[C@@H]1CC[C@]2(COC)CC[C@]3(C)[C@H](CC[C@@H]4[C@@]5(C)CCCNC(C)(C)[C@@H]5CC[C@]43C)[C@@H]12 is less than 40%?
y

Could you please tell me whether growth recorded for Cc1ccc(C2=Nn3c(nnc3-c3ccccc3)SC2)cc1 is less than 40%?
y

Could you please tell me whether growth recorded for CN1c2ccccc2Sc2cc(C=C(C#N)C#N)ccc21 is less than 40%?
n

Could you please tell me whether growth recorded for O=S(=O)(NCCCNc1nccc(-n2cnc3ccccc32)n1)c1ccc(C(F)(F)F)cc1 is less than 40%?
n

====

Test system: SK-MEL-5 melanoma
Assay: NCI-60 one-dose screen, 48 h
Settings: 10 µM unless noted
Protocol: Growth inhibition of the SK-MEL-5 human tumor cell line is measured as a screen for anti-cancer activity. Cells are grown in 96 well plates and exposed to the test compound for 48 hours. Compounds are tested at a single concentration, which is 10^-5 M for most compounds. The reported endpoint is percent growth (GI% or GIPRCNT), where numbers from 0 - 100% represent growth inhibition, and numbers from -100% - 0 represent cell death. For example, a value of 40 represents 60% growth inhibition. […]
The panel holds about 83,000 compounds, 20% with a hit somewhere; the sample as a whole holds those more often. The source made the active and inactive calls. Rule for the calls: active = growth percent below 10; inactive = the rest.
I would appreciate it if you answered using one of these outcomes: 1.0 = active, 0.0 = inactive

# fetch the recorded call for NC(N)=Nc1ccc(Oc2cccc(Nc3ccc(Br)c(C(F)(F)F)c3)c2)cc1 here
0.0

# fetch the recorded call for CN(C)CCN(C)c1ccc2ncc(C#Cc3cncc(C(=O)Nc4ccc(CN5CCN(C)CC5)c(C(F)(F)F)c4)c3)n2n1 here
0.0

# fetch the recorded call for COc1ccc(NC2=C(Cl)C(=O)c3nc(C)ccc3C2=O)cc1OC here
0.0

# fetch the recorded call for N#Cc1cnc2ccc(-c3cnc(N)nc3)cc2c1N1CCc2cc(F)c(Cl)cc21 here
1.0

# fetch the recorded call for O=S(=O)(NCCNc1nccc(-n2cnc3ccccc32)n1)c1ccc(Cl)cc1 here
0.0

====

System: HCT-15 colon
Assay: NCI-60 one-dose screen, 48 h (100 = growth as untreated, 0 = no growth, -100 = all killed)
Settings: 10 µM unless noted
Protocol: Growth inhibition of the HCT-15 human tumor cell line is measured as a screen for anti-cancer activity. Cells are grown in 96 well plates and exposed to the test compound for 48 hours. Compounds are tested at a single concentration, which is 10^-5 M for most compounds. The reported endpoint is percent growth (GI% or GIPRCNT), where numbers from 0 - 100% represent growth inhibition, and numbers from -100% - 0 represent cell death. For example, a value of 40 represents 60% growth inhibition. […]
The panel holds about 83,000 compounds, 20% with a hit somewhere; the sample as a whole holds those more often.
Give measured growth for each item. Keep answers brief.
Express it in %; write the number only.

Recorded growth of O=C(Nc1ccc(Br)cc1)Nc1nc2ccc([N+](=O)[O-])cc2s1 , please.
-11.3

Recorded growth of Cc1c(F)cc(C(N)=O)cc1NCC(=O)Nc1ccc([N+](=O)[O-])cc1 , please.
94

Recorded growth of COc1cc2c(cc1OC)C(Sc1ccc(C)cc1)c1c(nc(N)c(C#N)c1N)O2 (stereo not given) , please.
-74.3

Recorded growth of Nc1ncc(-c2ccc3ncnc(Nc4cccc(Cl)c4F)c3c2)cn1 , please.
56.4

Recorded growth of NC(=O)c1c(NC(=O)c2ccccc2C(F)(F)F)sc2c1CCC(=O)C2 , please.
10.7

Recorded growth of N#Cc1cnc2ccc(-c3cnc4[nH]ncc4c3)cc2c1N1CCc2cc(F)c(Cl)cc21 , please.
3.32

Recorded growth of O=S(=O)(NCCCNc1nccc(-c2[nH]c(-c3ccccc3)nc2-c2ccc(Cl)c(O)c2)n1)c1cccc(F)c1 , please.
38.6

Recorded growth of O=C(CN1CCN(c2cc(=O)n(-c3ccccc3)c3ccccc23)CC1)Nc1cccc(C(F)(F)F)c1 , please.
48.5

Recorded growth of COc1ccc(N2CCN(C3=C(Cl)C(=O)C(C)=C(C)C3=O)CC2)cc1 , please.
110

Recorded growth of CC(C)(C)CC(C)(C)n1nnnc1C(Nc1nccs1)c1cc2cccc3ccc4cccc1c4c32 (stereo not given) , please.
94.9

====

test system: A498 renal; assay: NCI-60 one-dose screen, 48 h; conditions: 10 µM unless noted
Compounds without any hit were thinned out: in the full panel of roughly 83,000, 20% have a hit. Active and inactive are the calls of the source. Rule for the calls: active = growth percent below 10; inactive = the rest.
I would appreciate it if you answered using one of these outcomes: true for active, false for inactive

# fetch the recorded call for Cn1cc(-c2nc(N)nnc2-c2c[nH]c3ccccc23)c2cc(Br)ccc21 here
true

# fetch the recorded call for N#Cc1cccc(CN2CCC3=C(C2)C(=O)N(Cc2ccc(Cl)cc2)C2=NCCN23)c1 here
false

# fetch the recorded call for CCCn1cnc2c(c1=N)C(c1ccc(Cl)cc1)c1sc3c(C)cccc3c1O2 (stereo not given) here
true

# fetch the recorded call for COc1c(N2CC3CCCNC3C2)c(F)cc2c(=O)c(C(=O)N/N=C/c3ccc(F)cc3)cn(C3CC3)c12 (stereo not given) here
false

# fetch the recorded call for O=S(=O)(NCCNc1nccc(-n2cnc3ccccc32)n1)c1ccc(Br)cc1 here
false

# fetch the recorded call for C=C(C)[C@@H]1CC[C@]2(COCCCNCCC#N)CC[C@]3(C)[C@H](CC[C@@H]4[C@@]5(C)CC[C@H](OCCCNCCC#N)C(C)(C)[C@@H]5CC[C@]43C)[C@@H]12 here
false

# fetch the recorded call for c1cc(-c2nc3ccc4[nH]ncc4c3c3c2CCCC3)[nH]n1 here
false

# fetch the recorded call for CCO/C=N/C1=C(C#N)C(c2ccc(Cl)cc2)c2sc3c(C)cccc3c2O1 (stereo not given) here
true

# fetch the recorded call for O=C1[C@H]2Cc3c([nH]c4ccccc34)[C@@H](c3ccc(Cl)cc3)N2C(=O)CN1C1CCN(Cc2ccccc2)CC1 here
false

# fetch the recorded call for O=c1[nH]c(Sc2sc3ccc(Cl)cc3c2CBr)nc(=S)[nH]1 here
true

# fetch the recorded call for COc1cc(-c2nn(C(C)(C)C)cc2-c2ccnc(NCCCNS(=O)(=O)c3ccc(F)cc3)n2)ccc1Cl here
false

# fetch the recorded call for NC/C(=C/F)COc1ccc2nc(NCc3cccnc3)oc2c1 here
false

# fetch the recorded call for C#Cc1nc(/C=C/C(=O)c2nccn2C)cs1 here
true

# fetch the recorded call for Cc1noc(C)c1CSc1nc2ccccc2n1-c1ccccc1 here
false

# fetch the recorded call for NC(N)=Nc1ccc(Oc2cccc(NC(N)=Nc3ccc(Cl)c(C(F)(F)F)c3)c2)cc1 here
false

# fetch the recorded call for O=C(NCc1ncc[nH]1)c1ccc(-c2nc3ccc4[nH]ncc4c3c3c2CCCC3)cc1 here
true

# fetch the recorded call for CNC(=O)c1cc(-c2ccc(NS(=O)(=O)c3ccc(C)cc3)cc2)nc2cccnc12 here
false

# fetch the recorded call for CC[C@]12C=CCN3CC[C@@]4(c5cc(NC(=O)COc6cc(O)c7c(=O)cc(-c8ccccc8)oc7c6)c(OC)cc5N(C)[C@H]4[C@@](O)(C(=O)OC)[C@@H]1OC(C)=O)[C@@H]32 here
true

# fetch the recorded call for C=CCOc1cccc(/C=C2\SC(=S)N(C3CC(=O)N(c4ccc(Br)cc4)C3=O)C2=O)c1 (stereo not given) here
false

# fetch the recorded call for CS(=O)(=O)Nc1cc(-c2ccc3ncc(C#N)c(NCc4ccccc4)c3c2)cnc1Cl here
true

# fetch the recorded call for COc1c(N2CC3CCCNC3C2)c(F)cc2c(=O)c(C(=O)N/N=C/c3ccc4c(c3)OCO4)cn(C3CC3)c12 (stereo not given) here
false

# fetch the recorded call for COc1cc(/C=C2\C(=O)Nc3cc(Cl)ccc32)ccc1OCc1ccc(F)cc1 here
false

# fetch the recorded call for NS(=O)(=O)c1ccc(Nc2nc(N/N=C/CCc3ccccc3)nc(Nc3ccccc3)n2)cc1 here
false

# fetch the recorded call for Cc1cccc2c3c(sc12)C(c1ccc(Cl)cc1)c1c(nc(CC(=O)Nc2ccccc2)[nH]c1=O)O3 (stereo not given) here
false

# fetch the recorded call for COc1ccc(COc2ccc(/C=C3\C(=O)Nc4ccccc43)cc2OC)cc1 here
false

# fetch the recorded call for COc1cccc(/C=C(/C)c2ccc3cccc(OC)c3[o+]2)c1O here
false

# fetch the recorded call for CS(=O)(=O)Nc1cc(-c2ccc3ncc(C#N)c(NCc4ccccc4O)c3c2)cnc1Cl here
true

# fetch the recorded call for CCOc1ccc(C(=O)Nc2ncc(Cc3ccc(F)cc3)s2)cc1 here
false

# fetch the recorded call for COc1cc(OC)c(/C=C/S(=O)(=O)Cc2ccc(OC)c(NCC(=O)NO)c2)c(OC)c1 here
true

# fetch the recorded call for N/C(=N\C(N)=N\c1nc2ccccc2s1)c1ccncc1Cl here
false
